Test system: CAKI-1 renal
experiment: NCI tumour cell line growth inhibition, 48 h
reported property: TGI

molecule=C#C[C@@H](CCCC)OC(=O)N[C@H](C)c1ccccc1 reported_property=TGI recorded_result="> 100 µM"
molecule=NS(=O)(=O)c1ccc(NCc2nc3ccccc3[nH]2)cc1 reported_property=TGI recorded_result="> 100 µM"
molecule=COC(=O)c1cc(C)[nH]c2c(C)cc3nc4ccccc4c3c12 reported_property=TGI recorded_result="13.4 µM"
molecule=O=c1onc(Nc2ccccc2)n1-c1ccccc1 reported_property=TGI recorded_result="> 100 µM"
molecule="COC(=O)C(C)Oc1ccc(O)cc1 (stereo not given)" reported_property=TGI recorded_result="> 100 µM"
molecule="O=C(O)c1cccc(S(=O)(=O)NN2C(=O)CSC2c2c(O)ccc3ccccc23)c1 (stereo not given)" reported_property=TGI recorded_result="68 µM"
molecule=CCOC(=O)CN1C(=O)C(=O)N(c2ccc(OC)c3ccccc23)C1=O reported_property=TGI recorded_result="> 100 µM"
molecule="CC1CN=C(c2ccc(CN3CCC(CCCC4CCN(Cc5ccc(C6=NCC(C)N6)cc5)CC4)CC3)cc2)N1 (stereo not given)" reported_property=TGI recorded_result="> 100 µM"
molecule=CCOC(=O)Cc1cc(=O)[nH]c(-n2[nH]c(C)c(CCO)c2=O)n1 reported_property=TGI recorded_result="> 100 µM"
molecule=COc1ccc(/C=C(/c2ccc(OC)cc2)c2c(Cl)cc(Cl)c(/C(=C\c3ccc(OC)cc3)c3ccc(OC)cc3)c2N=Nc2ccccc2)cc1 reported_property=TGI recorded_result="> 100 µM"
molecule=COc1cc2c(=O)n(CC3CCCCC3)c3c4cc[nH]c4ncc3c2cc1OC reported_property=TGI recorded_result="7.39 µM"
molecule=CN(C)Cc1cc(C(C)(C)C)cc(CN(C)C)c1O reported_property=TGI recorded_result="> 100 µM"
molecule="NC1=C(O)C(=O)C(c2c[nH]c3ccc(OCc4ccccc4)cc23)O1 (stereo not given)" reported_property=TGI recorded_result="> 100 µM"
molecule=Cc1cc(S(=O)(=O)Nc2n[nH]c(Nc3ccccc3)n2)c(SSc2cc(Cl)c(C)cc2S(=O)(=O)Nc2n[nH]c(Nc3ccccc3)n2)cc1Cl reported_property=TGI recorded_result="> 100 µM"
molecule=N=C(N)c1ccc(-c2ccc(-c3ccc(Cl)cc3Cl)s2)nc1 reported_property=TGI recorded_result="3.1 µM"
molecule="C=C1CC(O)C2C(=C)C(=O)OC2C2C(C)C(=O)CC12 (stereo not given)" reported_property=TGI recorded_result="16.6 µM"
molecule="Clc1ncnc2c1nc(C#Cc1ccccc1)n2C1CCCCO1 (stereo not given)" reported_property=TGI recorded_result="3.91 µM"
molecule="COC(=O)C(/C(=N\\O)C(=O)Nc1ccc(Br)cc1)c1nc2ccccc2[nH]c1=O (stereo not given)" reported_property=TGI recorded_result="> 100 µM"
molecule=C[C@H]1CC[C@@H]2[C@@H](C)[C@H]3[C@H](C[C@H]4[C@@H]5CC=C6C[C@@H](O)CC[C@]6(C)[C@H]5CC[C@]34C)N2C1 reported_property=TGI recorded_result="> 100 µM"
molecule=O=C(N/C(=C\c1ccc(F)cc1)c1nc2ccccc2[nH]1)c1ccccc1 reported_property=TGI recorded_result="> 100 µM"

* * *

Test system: NCI/ADR-RES ovarian
experiment: NCI tumour cell line growth inhibition, 48 h; in the data active means GI50 below about 0.43 µM; inactive means the rest
Classes used: true (1) = active, false (0) = inactive

compound=O=S(=O)(Nc1ccc(Cl)c(Cl)c1)c1ccc(-c2cnc(C3CC3)o2)cc1 answer_label="true (1)"
compound=Cc1c2ccccc2c(C)n2c1nc1cc(Cl)c(Cl)cc12 answer_label="false (0)"
compound=CNc1nc(-c2ccc3c(N)n[nH]c3c2)cc(N2C[C@@H](C(=O)NC3CCCCC3)CC[C@H]2C)n1 answer_label="false (0)"
compound=COc1cc2c(=O)n(CC3CCCCC3)c3c4cc[nH]c4ncc3c2cc1OC answer_label="false (0)"
compound=CCOC(=O)N(O)c1ccc(/C=C/c2ccccc2)cc1 answer_label="false (0)"
compound="COc1ccc2c(c1)C=CC1C2CC[C@]2(C)C(NC(=O)/C=C/c3ccc(O)c(O)c3)CCC12 (stereo partly specified)" answer_label="false (0)"
compound="COc1ccc(C2C3=C(COC3=O)N(CCO)c3cc4c(cc32)CCC4)cc1 (stereo unspecified)" answer_label="false (0)"
compound=CN(C)CCOc1ccc2c(c1)C(=O)/C(=C\c1ncc([N+](=O)[O-])n1C)C2 answer_label="false (0)"
compound=Cc1cn2cc(-c3ccc4c(c3)CC(=O)N4)nc2s1 answer_label="false (0)"
compound="CC(C)(C)CC(C)(C)NCC(O)COc1ccc(C(C)(C)c2ccc(OCC(O)CNC(C)(C)CC(C)(C)C)cc2)cc1 (stereo unspecified)" answer_label="false (0)"
compound=C[C@@H](C[C@H](CCO)c1ccccc1)c1ccc2ccccc2c1 answer_label="false (0)"
compound=O=C(/C=C/c1ccc(Cl)cc1Cl)c1ccc(Cl)cc1Cl answer_label="false (0)"
compound=c1ccc(-c2cc3n4c(-c5ccccc5)nn(-c5ccccc5)c4cnc-3n2)cc1 answer_label="false (0)"
compound=C=C(CN1CCN(c2ccc(F)c(Cl)c2)CC1)c1ccc(C(=O)Nc2ccccc2N)cc1 answer_label="false (0)"
compound=CNC(=O)c1cc(-c2ccc(F)cc2)cc(-c2ccc(S(=O)(=O)N3CCCC3)cc2)c1N answer_label="false (0)"
compound=COc1ccc(S(=O)(=O)Nc2cc(Sc3cccc4cccnc34)c(O)c3ccccc23)cc1 answer_label="false (0)"

* * *

Catalogue of TGI readings, one per entry.
Test system: TK-10 renal
experiment: NCI tumour cell line growth inhibition, 48 h
reported property: TGI

compound=Cc1ccc2c(=O)cc(-c3cccc(F)c3)[nH]c2n1 recorded_result="> 100 µM"
compound=CCCCCC/C(CC(=O)CCC(=O)NCCc1ccccc1)=N\Nc1ccc([N+](=O)[O-])cc1[N+](=O)[O-] recorded_result="> 100 µM"
compound="CC(C)(C)CC(C)(C)NCC(O)COc1ccc(C(C)(C)c2ccc(OCC(O)CNC(C)(C)CC(C)(C)C)cc2)cc1 (stereo not given)" recorded_result="3.32 µM"
compound=O=C1/C(=C/c2ccc(O)cc2)Oc2ccccc21 recorded_result="> 100 µM"
compound="CC1OC(=O)N2CCC=CC12 (stereo not given)" recorded_result="> 100 µM"
compound="CCC(C)N1CN(c2ccccc2)C2(CCN(CCCC3(c4ccc(F)cc4)OCCO3)CC2)C1=O (stereo not given)" recorded_result="20.7 µM"
compound=CC1=NN(c2nc(N)nc(-c3cc4ccccc4oc3=N)n2)C(C)(C)C1 recorded_result="38.4 µM"
compound="Fc1ccc2c(c1)nc1n2C(c2c(F)cccc2F)SC1 (stereo not given)" recorded_result="> 100 µM"
compound=C[C@@H]1Cc2c(ccc3[nH]ncc23)[C@@H](c2ccc(NC3CN(CCCF)C3)cn2)N1CC(F)(F)F recorded_result="44.7 µM"
compound=CC1=NN2CCC(=O)N=C2S1 recorded_result="> 100 µM"

* * *

Tested on: SF-539 CNS
experiment: NCI tumour cell line growth inhibition, 48 h
Catalogue of TGI readings, one per entry.
reported property: TGI

compound=CCN(CCC#N)C(=O)Nc1ccccc1 reported_property=TGI recorded_result="> 100 µM"
compound=COc1ccc(C2=NN(c3nsc4ccccc34)C(=O)CC2)cc1 reported_property=TGI recorded_result="> 100 µM"
compound=O=C(Cn1c(=O)oc2ccc(C(=O)c3cccc(Cl)c3)cc21)c1ccccc1 reported_property=TGI recorded_result="> 100 µM"
compound=COc1ccc(/C=C(/c2ccc(OC)cc2)c2c(Cl)cc(Cl)c(/C(=C\c3ccc(OC)cc3)c3ccc(OC)cc3)c2N=Nc2ccccc2)cc1 reported_property=TGI recorded_result="> 100 µM"
compound=CCCCCCCCCCOc1ccc(N=Nc2nnc(-c3ccc(OCCCCC)cc3)s2)cc1 reported_property=TGI recorded_result="> 100 µM"
compound="CCOC(=O)C1CCCN1C(=O)c1ccccc1Cl (stereo unspecified)" reported_property=TGI recorded_result="> 100 µM"
compound=NS(=O)(=O)c1ccc(NCc2nc3ccccc3[nH]2)cc1 reported_property=TGI recorded_result="> 100 µM"
compound=CCCC(=O)OC(OC(=O)CCC)c1ccc([N+](=O)[O-])o1 reported_property=TGI recorded_result="> 100 µM"
compound=Cc1ccc2c(=O)cc(-c3cccc(F)c3)[nH]c2n1 reported_property=TGI recorded_result="0.78 µM"
compound="COc1ccc(C2NC(N)=C(C#N)C3=C2C(C)CCC3)cc1OC (stereo unspecified)" reported_property=TGI recorded_result="> 100 µM"
compound="COC(=O)C(C)Oc1ccc(O)cc1 (stereo unspecified)" reported_property=TGI recorded_result="> 100 µM"

* * *

System: SNB-19 CNS
experiment: NCI tumour cell line growth inhibition, 48 h; in the data active = GI50 below about 0.43 µM; inactive = the rest
Classes used: active, inactive

molecule=COc1ccc(/C=C/C(=O)c2ccc(Nc3nc(Nc4ccc(F)cc4)nc(Nc4ccc(F)cc4)n3)cc2)cc1 answer_label=inactive
molecule=Cc1nc2sc(C(=O)Nc3ccccc3)c(N)c2cc1C(=O)c1ccccc1 answer_label=inactive
molecule=CS(=O)(=O)CCNCc1ccoc1-c1ccc2ncnc(Nc3ccc(OCc4ccccc4)cc3)c2c1 answer_label=inactive
molecule="COc1ccc(C2C3=C(COC3=O)N(CCO)c3cc4c(cc32)CCC4)cc1 (configuration not stated)" answer_label=inactive
molecule=COC(=O)[C@@H](C)C[C@H](Cc1ccccc1)NC(=O)c1csc([C@@H](C[C@H](C(C)C)N(C)C(=O)[C@@H](NC(=O)[C@H]2CCCCN2C)C(C(F)(F)F)C(F)(F)F)OC(C)=O)n1 answer_label=active
molecule=C1CC[N-]CC1.CC(=N\O)/C(C)=N/O.CC(=N\O)/C(C)=N/O.C[CH-]C(C)O.[Co+2] answer_label=inactive
molecule=N=C1C=C(N)C(=O)c2ccccc21 answer_label=inactive
molecule="COc1ccc(F)cc1-c1ccnc2[nH]c(C3=CCN(C4CCC(CC(=O)O)CC4)CC3)cc12 (configuration not stated)" answer_label=active
molecule=CNC(=O)c1cc(-c2ccc(F)cc2)cc(-c2ccc(S(=O)(=O)N3CCCC3)cc2)c1N answer_label=inactive
molecule=CC(=O)/C(=C/N1CCN(C(=O)c2ccco2)C1=S)C(=O)c1ccccc1 answer_label=inactive
molecule=CCOC(=O)N(O)c1ccc(/C=C/c2ccccc2)cc1 answer_label=inactive
molecule=CCSc1nc(N)c2cnn(CC)c2n1 answer_label=inactive
